- System: MS2 coat protein
- method: apparent KD of MS2 coat protein, switch ON state; designed switch direction (-1 OFF switch, 1 ON switch): -1; higher = weaker reporter binding
- condition-summary: FMN input: 0 or 200 uM; Eterna round: R93 (includes R88 designs)
endpoint: apparent KD of MS2 coat protein
A bare number is not enough; add the unit after it.

AACUGACAUGAGGAUCACCCAUGUCAGGAUAUGCUUCAUAAAAAAAAAAAAAAAUGAUGCAGAAGGGACAUGAA [Design 25 :P Sub-opt 1] : 13 nM

If you can, please state the reported apparent KD of MS2 coat protein value of AAAGGACUAGGAUAUACAUGAGGAUCACCCAUGUAAAAAACAUAAUAAAAGAACUUAUGUAGAAGGAGUCCAAA [69%, Moding Meechl, 9] .
31.7 nM

Try AAAAAACAUGAGGAUCACCCAUGUAAGGAUAUGCUAGGAAAAAGAAAAAUAAAAACUAGCAGAAGGUACAUAAA [JL wbt mod 10] next.
25.3 nM

Try AAAAAACAUGAGGAUCACCCAUGUGAGGAUAUGCUAUGGAAAAUAAAAAUAAAACAUAGCAGAAGGCACAAUGU [Denovo 5] next.
50.9 nM
